- measurement.protocol: Plasma pharmacokinetics of dovitinib, gemcitabine and capecitabine by LC/MS/MS
- Format: in vivo, human
- study.conditions: human, plasma, oral, 300 mg, median half-life (T1/2), Day 19; dovitinib 300 mg

{"chemical.string": "CN1CCN(c2ccc3nc(-c4c(N)c5c(F)cccc5[nH]c4=O)[nH]c3c2)CC1", "half-life": "~13 h"}

---

- measurement.protocol: Plasma pharmacokinetics of dovitinib, gemcitabine and capecitabine by LC/MS/MS
- Format: in vivo, human
- study.conditions: human, plasma, oral, 300 mg, median half-life (T1/2), Day 1; dovitinib 300 mg
readout.kind: half-life

{"compound": "CN1CCN(c2ccc3nc(-c4c(N)c5c(F)cccc5[nH]c4=O)[nH]c3c2)CC1 [dovitinib]", "reading": "~15 h"}
